Experiment: Pharmacokinetics of TH302 in Beagle Dogs (Table 6)
Type: in vivo
Conditions: male, dog, plasma, intravenous, Males, 32 mg/kg
reported.endpoint: AUC (ng·h/mL)
# number only, unit ng·h/mL dropped from output

INPUT: Supply measured AUC of `Cn1c(COP(=O)(NCCBr)NCCBr)cnc1[N+](=O)[O-]` in your reply.
OUTPUT: 11000

---

Experiment: Pharmacokinetics in Sprague-Dawley rats (single dose i.v. and p.o.)
Type: in vivo, male Sprague-Dawley rats
Settings: male, Sprague-Dawley, rat, plasma, iv, 5 mg/kg, rats, 5 mg/kg i.v. bolus, individual animals; read-out: AUC(0-t)
reported.endpoint: AUC(0-t) (ng·h/mL)
# number only, unit ng·h/mL dropped from output

INPUT: Supply measured AUC(0-t) of `Cn1c(COP(=O)(NCCBr)NCCBr)cnc1[N+](=O)[O-]` in your reply.
OUTPUT: 730
